Known IC50 of a selection of compounds
Target: telomerase (Homo sapiens, UniProt O14746)
Construct: A549 cells (human epithelial cell lung carcinoma, ATCC, Manassas, VA) were lysed in; host or cells: A549 cell lysate (CHAPS extract, 5 µg total protein)
Sequence (O14746 whole entry): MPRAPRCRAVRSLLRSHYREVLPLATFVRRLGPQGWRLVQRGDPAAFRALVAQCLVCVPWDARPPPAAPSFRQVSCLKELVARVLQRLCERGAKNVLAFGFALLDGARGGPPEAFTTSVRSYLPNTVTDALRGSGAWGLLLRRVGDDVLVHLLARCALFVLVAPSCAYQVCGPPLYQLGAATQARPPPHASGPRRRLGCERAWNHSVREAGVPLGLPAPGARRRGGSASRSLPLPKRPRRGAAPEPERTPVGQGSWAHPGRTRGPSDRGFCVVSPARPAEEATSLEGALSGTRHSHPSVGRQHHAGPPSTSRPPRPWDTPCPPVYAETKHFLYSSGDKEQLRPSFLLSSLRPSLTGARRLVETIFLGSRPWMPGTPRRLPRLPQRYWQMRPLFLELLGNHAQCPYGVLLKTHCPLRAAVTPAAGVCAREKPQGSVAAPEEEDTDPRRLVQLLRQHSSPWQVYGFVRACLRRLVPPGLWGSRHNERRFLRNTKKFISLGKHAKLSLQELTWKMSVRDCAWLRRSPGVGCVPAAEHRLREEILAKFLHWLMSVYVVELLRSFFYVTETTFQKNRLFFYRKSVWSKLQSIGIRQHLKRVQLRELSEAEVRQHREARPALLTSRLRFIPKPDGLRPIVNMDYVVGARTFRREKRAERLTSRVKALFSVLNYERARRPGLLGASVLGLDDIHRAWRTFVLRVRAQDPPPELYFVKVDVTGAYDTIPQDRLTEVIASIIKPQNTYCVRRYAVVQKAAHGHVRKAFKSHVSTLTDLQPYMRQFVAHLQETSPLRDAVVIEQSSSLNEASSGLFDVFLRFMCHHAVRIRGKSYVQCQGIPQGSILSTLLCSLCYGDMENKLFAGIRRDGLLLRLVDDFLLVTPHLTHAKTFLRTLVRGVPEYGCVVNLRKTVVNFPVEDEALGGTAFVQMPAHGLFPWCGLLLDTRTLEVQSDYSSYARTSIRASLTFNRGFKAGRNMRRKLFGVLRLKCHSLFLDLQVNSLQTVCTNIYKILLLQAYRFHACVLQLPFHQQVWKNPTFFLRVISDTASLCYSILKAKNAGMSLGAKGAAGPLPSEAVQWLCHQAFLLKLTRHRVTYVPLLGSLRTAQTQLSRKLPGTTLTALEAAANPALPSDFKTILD
Sequence (O60832 whole entry partner): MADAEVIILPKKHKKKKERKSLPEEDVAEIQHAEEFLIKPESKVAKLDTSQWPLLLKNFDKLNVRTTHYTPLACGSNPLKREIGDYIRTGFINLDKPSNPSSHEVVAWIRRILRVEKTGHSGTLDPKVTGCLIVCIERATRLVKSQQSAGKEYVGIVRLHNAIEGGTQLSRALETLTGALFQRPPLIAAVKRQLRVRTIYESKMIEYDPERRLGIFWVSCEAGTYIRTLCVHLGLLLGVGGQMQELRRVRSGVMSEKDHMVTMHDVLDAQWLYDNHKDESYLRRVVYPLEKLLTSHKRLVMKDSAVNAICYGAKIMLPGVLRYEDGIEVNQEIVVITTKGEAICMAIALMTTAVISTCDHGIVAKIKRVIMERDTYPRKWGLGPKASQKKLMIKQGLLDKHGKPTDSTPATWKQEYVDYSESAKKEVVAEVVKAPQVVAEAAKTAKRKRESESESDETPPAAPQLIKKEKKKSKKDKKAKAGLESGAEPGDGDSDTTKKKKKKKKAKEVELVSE
Sequence (Q9NX24 whole entry partner): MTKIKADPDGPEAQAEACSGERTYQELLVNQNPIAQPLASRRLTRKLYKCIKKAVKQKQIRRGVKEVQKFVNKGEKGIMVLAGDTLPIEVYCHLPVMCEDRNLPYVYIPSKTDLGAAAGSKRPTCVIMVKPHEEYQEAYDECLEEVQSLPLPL
Sequence (Q9NPE3 whole entry partner): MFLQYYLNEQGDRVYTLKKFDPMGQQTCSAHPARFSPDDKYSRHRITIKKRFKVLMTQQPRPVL
Sequence (Q9NY12 whole entry partner): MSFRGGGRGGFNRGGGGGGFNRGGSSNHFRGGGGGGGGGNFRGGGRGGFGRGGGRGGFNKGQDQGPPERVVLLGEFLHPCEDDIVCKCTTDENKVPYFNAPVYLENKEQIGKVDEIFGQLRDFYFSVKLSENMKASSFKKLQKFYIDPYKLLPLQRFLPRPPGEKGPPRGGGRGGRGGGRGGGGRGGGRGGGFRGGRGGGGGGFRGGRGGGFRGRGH
Sequence (Q9BUR4 whole entry partner): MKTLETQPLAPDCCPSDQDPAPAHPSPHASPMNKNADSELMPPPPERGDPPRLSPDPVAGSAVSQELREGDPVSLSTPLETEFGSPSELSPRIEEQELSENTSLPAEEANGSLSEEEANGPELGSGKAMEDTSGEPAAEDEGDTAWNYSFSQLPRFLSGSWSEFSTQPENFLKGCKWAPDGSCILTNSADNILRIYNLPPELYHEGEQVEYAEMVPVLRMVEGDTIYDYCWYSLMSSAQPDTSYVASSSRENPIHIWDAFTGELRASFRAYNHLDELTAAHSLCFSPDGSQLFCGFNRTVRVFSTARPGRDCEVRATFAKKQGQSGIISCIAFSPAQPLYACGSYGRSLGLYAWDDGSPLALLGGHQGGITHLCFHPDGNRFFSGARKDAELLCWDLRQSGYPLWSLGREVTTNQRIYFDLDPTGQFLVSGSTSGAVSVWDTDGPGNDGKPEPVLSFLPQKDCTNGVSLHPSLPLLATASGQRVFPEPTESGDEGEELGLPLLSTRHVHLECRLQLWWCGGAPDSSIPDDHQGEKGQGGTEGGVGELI
Test: TRAP / RTQ-TRAP telomerase activity assay in A549 cell-free lysates;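 also: telomerase activity measured in cell-free extracts of human A549 epithelial lung carcinoma cells, tested across a range of inhibitor concentrations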
Assay type: biochemical
Conditions: telomerase inhibition, mean ± SEM
Answer with a number only, understood to be in µM.

COMPOUND: Cc1nn(-c2ccccc2)cc1/C=C(\C#N)C(=O)Nc1sc2c(c1C#N)CCCC2 [Compound 33b]
IC50 (µM): 178

COMPOUND: N#C/C(=C\c1ccc(Cl)c(Cl)c1)C(=O)Nc1sc2c(c1C#N)CCCC2 [Compound 27b]
IC50 (µM): 12.5

COMPOUND: N#C/C(=C\c1ccc(N2CCOCC2)cc1)C(=O)Nc1sc2c(c1C#N)CCCC2 [Compound 30b]
IC50 (µM): 5.9

Query: I would be grateful if you could share the reported IC50 for N#C/C(=C\c1cccc(Cl)c1Cl)C(=O)Nc1sc2c(c1C#N)CCC2 [Compound 28a] .
Reply: 6.7

Query: Report IC50 for N#C/C(=C\c1c[nH]c2ccccc12)C(=O)Nc1sc2c(c1C#N)CCCC2 [Compound 39b] please.
Reply: 2

Query: # lookup: IC50 of COc1ccc(/C=C(\C#N)C(=O)Nc2sc3c(c2C#N)CCCC3)cc1OC [Compound 26b]
Reply: 53.6

Query: Fill in the blank: the reported IC50 of N#C/C(=C\c1cccc2c1OCO2)C(=O)Nc1sc2c(c1C#N)CCCC2 [Compound 37b] is ____.
Reply: 97.8

Query: Looking for the measured IC50 of N#C/C(=C\c1ccc(C(F)(F)F)cc1)C(=O)Nc1sc2c(c1C#N)CCCC2 [Compound 25b] , can you help?
Reply: 25.8
